# Tested on: Enterococcus sp.
# measurement-protocol: In vitro antibacterial evaluation: minimum inhibitory concentration (MIC), broth dilution method
# Type: cell-based
# assay-conditions: strain GC 2242
metric: MIC Enterococcus faecalis (GC 2242) (µg/mL)
One number for each entry, in µg/mL.

| molecule | test-target | metric | observed |
| --- | --- | --- | --- |
| CC(c1ccccc1)C1NC(=O)CNC(=O)C(CO)NC(=O)C(C(O)C2CN(Cc3ccccc3)C(=NCc3ccccc3)N2C2OC(CO)C(O)C(O)C2O)NC(=O)C(C(O)C2CN(Cc3ccccc3)C(=NCc3ccccc3)N2Cc2ccccc2)NC(=O)C(Cc2ccc(OC3OC(CO)C(OC4OC5COC6(OC5C(O)C4O)C4CC5CC(C4)CC6C5)C(O)C3O)cc2)NC1=O (stereo not shown) | Enterococcus sp. | MIC Enterococcus faecalis (GC 2242) | 16 |

Give MIC Enterococcus faecalis (GC 2242) for each listed item.
1. CC(c1ccccc1)C1NC(=O)CNC(=O)C(CO)NC(=O)C(C(O)C2CN(Cc3ccc(C(C)(C)C)cc3)C(=N)N2C2OC(CO)C(O)C(O)C2O)NC(=O)C(C(O)C2CNC(=N)N2)NC(=O)C(Cc2ccc(OC3OC(CO)C(OC4OC5COC6(OC5C(O)C4O)C4CC5CC(C4)CC6C5)C(O)C3O)cc2)NC1=O (stereo not shown)
2. CC(c1ccccc1)C1NC(=O)CNC(=O)C(CO)NC(=O)C(C(O)C2CNC(=N)N2C2OC(CO)C(O)C(O)C2O)NC(=O)C(C(O)C2CNC(=N)N2)NC(=O)C(Cc2ccc(OC3OC(CO)C(OC4OC5COC(c6cccc(Oc7ccccc7)c6)OC5C(O)C4O)C(O)C3O)cc2)NC1=O (stereo not shown)
3. CCCCCCCN1CC(C(O)C2NC(=O)C(C(O)C3CNC(=N)N3)NC(=O)C(Cc3ccc(OC4OC(CO)C(OC5OC6COC7(OC6C(O)C5O)C5CC6CC(C5)CC7C6)C(O)C4O)cc3)NC(=O)C(C(C)c3ccccc3)NC(=O)CNC(=O)C(CO)NC2=O)N(C2OC(CO)C(O)C(O)C2O)C1=N (stereo not shown)

Reply:
[16, 4, 4]

* * *

# System: Staphylococcus sp.
# measurement-protocol: In vitro antibacterial evaluation: minimum inhibitory concentration (MIC), broth dilution method
# Type: cell-based
# assay-conditions: Staphylococcus aureus (GC 4545); 18 hours at 35° C.
# From the text: […]
Numbered stars: 1 amine (or outer) side, 2 acyl side, 3 side chain; on linkers, the order of the positions; unused ones are H or OH. Square brackets hold non-standard residues; d marks the D form. Peptide text beside a SMILES is read from it. * marks the point of attachment. ξ: configuration not given here. X1 = N=C1NCC(C(O)C(N[*:1])C(=O)[*:2])N1C1OC(CO)C(O)C(O)C1O; ξEnduracididine(βξ-OH,4'ξ) = N=C1NCC(C(O)C(N)C(=O)O)N1; ξPhe(4-Cl,βξ-Me) = CC(c1ccc(Cl)cc1)C(N)C(=O)O; X2 = OCC1OC(OC2C(CO)OC(*)C(O)C2O)C(O)C(O)C1O
metric: MIC Staphylococcus aureus (GC 4545) (µg/mL)
Numbers only, in µg/mL.

Consider the reported MIC Staphylococcus aureus (GC 4545) for these molecules:
| molecule | metric | observed |
| --- | --- | --- |
| CC(c1ccc(Cl)cc1)C1NC(=O)CNC(=O)C(CO)NC(=O)C(C(O)C2CNC(=N)N2C2OC(CO)C(O)C(O)C2O)NC(=O)C(C(O)C2CNC(=N)N2)NC(=O)C(Cc2ccc(OC3OC(CO)C(OC4OC(CO)C(O)C(O)C4O)C(O)C3O)cc2)NC1=O (stereo not drawn) [Example 262a] (cyclo(G[ξPhe(4-Cl,βξ-Me)]Y(X2)[ξEnduracididine(βξ-OH,4'ξ)][X1]S); configuration not given here) | MIC Staphylococcus aureus (GC 4545) | 64 |
| CC(C)CC(=O)OC1C(OC2C(CO)OC(Oc3ccc(CC4NC(=O)C(C(C)c5ccc(F)cc5)NC(=O)CNC(=O)C(CO)NC(=O)C(C(O)C5CNC(=N)N5C5OC(CO)C(O)C(O)C5O)NC(=O)C(C(O)C5CNC(=N)N5)NC4=O)cc3)C(O)C2O)OC(CO)C(O)C1O (stereo not drawn) [Example 261b] | MIC Staphylococcus aureus (GC 4545) | 16 |

Next molecule, please.
Ask: Looking for the measured MIC Staphylococcus aureus (GC 4545) of COc1ccc2cc(COCC3OC(OC4C(CO)OC(Oc5ccc(CC6NC(=O)C(C(C)c7ccccc7)NC(=O)CNC(=O)C(CO)NC(=O)C(C(O)C7CNC(=N)N7C7OC(CO)C(O)C(O)C7O)NC(=O)C(C(O)C7CNC(=N)N7)NC6=O)cc5)C(O)C4O)C(O)C(O)C3O)ccc2c1 (stereo not drawn) , can you help?
Reply: 1
